# Test system: F1*sub RNA substrate (template-directed ligation)
# assayText: fraction ligated after 30 min (ligated reads / total reads); higher = more ligase activity; sequences stand for … in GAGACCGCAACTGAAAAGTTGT…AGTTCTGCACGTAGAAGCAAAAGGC
# testSettings: 42 °C
measurementType: fraction ligated
Output: the number by itself.

Study these solved cases before continuing.
| seq | fraction ligated |
| --- | --- |
| TATCCTTGTGTAAGACACTTTGGATGGGTTG [3d1014] | 0.745 |
| TATCACTTGTCGTGACATTTGGATGGGTTGA [3d1985] | 0.809 |
| ATACTTGTCGTAAGACACTTTGGATGGGTTA [3d65] | 0.0347 |
| TATCACTTGCGTAAGACACTTTATGGGTTGA [3d1688] | 0.12 |

// query Fill in fraction ligated for record TATCACTTGTCGTAAAACTTTGGATGGGTTA [3d2065]
// result 0.764
